src = patent US20140357844A1

Each record here notes measured % positive.
# target.under.test: T1, Trop-2 on Trop-2 expressing tumor cells (human, UniProt P09758 27-323)
# T1 construct: Endogenous Trop-2 of human tumour cell lines; also called Trop-2 positive tumor cells; A431 (Trop-2+++)
# T1 sequence: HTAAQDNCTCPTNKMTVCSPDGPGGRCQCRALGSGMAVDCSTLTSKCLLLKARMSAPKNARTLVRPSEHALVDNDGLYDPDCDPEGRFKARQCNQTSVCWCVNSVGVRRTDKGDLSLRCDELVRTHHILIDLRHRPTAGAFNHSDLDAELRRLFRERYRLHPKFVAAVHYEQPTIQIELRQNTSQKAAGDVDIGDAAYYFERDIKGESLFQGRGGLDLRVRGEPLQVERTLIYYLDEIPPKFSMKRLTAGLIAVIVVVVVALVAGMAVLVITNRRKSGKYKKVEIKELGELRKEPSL
# assay.info: flow cytometry, A431 cells (Trop-2+++), 0.5 ug antibody per 200,000 cells

binder	% positive (%)
h7E6_SVG antibody (human IgG1) (antibody, V domains shown) VH: QVQLQESGPGLVKPSETLSLTCTVSGGSISSYGVHWIRQPPGKGLEWIGVIWTSGVTDYNSALMGRVTISVDTSKNQFSLKLSSVTAADTAVYYCARDGDYDRYTMDYWGQGTLVTVSS VL: DIVMTQSPDSLAVSLGERATINCRASKSVSTSGYSYMHWYQQKPGQPPKLLIYLASNLESGVPDRFSGSGSGTDFTLTISSLQAEDVAVYYCQHSRELPYTFGQGTKLEIK	96.7
h7E6_SVGL antibody (human IgG1) (antibody, V domains shown, Human IgG1) VH: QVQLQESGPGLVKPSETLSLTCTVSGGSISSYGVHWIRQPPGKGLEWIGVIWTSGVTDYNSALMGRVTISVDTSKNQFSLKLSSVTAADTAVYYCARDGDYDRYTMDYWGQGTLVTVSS VL: DIVMTQSPDSLAVSLGERATINCRASKSVSTSLYSYMHWYQQKPGQPPKLLIYLASNLESGVPDRFSGSGSGTDFTLTISSLQAEDVAVYYCQHSRELPYTFGQGTKLEIK	93.1
